tested on: Staphylococcus aureus; experiment: Antimicrobial activity against Staphylococcus aureus ATCC 13709 after 20 to 24 hrs; type: functional
Exam item: assign Criterion met to entries whose MIC is below 1 µg/mL and Criterion not met to entries at or above 1 µg/mL. Note that a value of exactly 1 µg/mL receives Criterion not met.

compound=NC[C@@H]1O[C@H](O[C@H]2[C@@H](OCCNCCCc3ccccc3)[C@H](O[C@@H]3[C@@H](O)[C@H](N)C[C@H](N)[C@H]3O[C@H]3O[C@H](CO)[C@@H](O)[C@H](O)[C@H]3N)O[C@@H]2CO)[C@H](N)[C@@H](O)[C@@H]1O label="Criterion met"
compound=NC[C@@H]1O[C@H](O[C@H]2[C@@H](OCCCCCc3ccccc3)[C@H](O[C@@H]3[C@@H](O)[C@H](N)C[C@H](N)[C@H]3O[C@H]3O[C@H](CO)[C@@H](O)[C@H](O)[C@H]3N)O[C@@H]2CO)[C@H](N)[C@@H](O)[C@@H]1O label="Criterion not met"
compound=NCCO[C@H]1[C@H](O[C@@H]2[C@@H](O)[C@H](N)C[C@H](N)[C@H]2O[C@H]2O[C@H](CO)[C@@H](O)[C@H](O)[C@H]2N)O[C@H](CO)[C@H]1O label="Criterion not met"
compound="NC[C@@H]1O[C@H](O[C@H]2[C@@H](OCCNC3CCCc4ccccc43)[C@H](O[C@@H]3[C@@H](O)[C@H](N)C[C@H](N)[C@H]3O[C@H]3O[C@H](CO)[C@@H](O)[C@H](O)[C@H]3N)O[C@@H]2CO)[C@H](N)[C@@H](O)[C@@H]1O (stereo partly drawn)" label="Criterion not met"
compound=N[C@H]1[C@@H](O[C@H]2[C@H](O[C@@H]3O[C@H](CO)[C@@H](O)[C@H]3O)[C@@H](O)[C@H](N)C[C@@H]2N)O[C@H](CO)[C@@H](O)[C@@H]1O label="Criterion not met"
